system: SKMEL28; assay: apoptotic fraction of cells (caspase-3 NucView488 positive); higher = more apoptosis; conditions: 72 h; 0.01 µM
measurement-name: apoptotic fraction of cells

- molecule: "CCCS(=O)(=O)Nc1ccc(F)c(C(=O)c2c[nH]c3ncc(Cl)cc23)c1F [PLX4720]"
  measurement-name: "apoptotic fraction of cells"
  observed-measurement: 0.0409
- molecule: "Cn1cnc2c(F)c(Nc3ccc(Br)cc3Cl)c(C(=O)NOCCO)cc21 [Selumetinib]"
  measurement-name: "apoptotic fraction of cells"
  observed-measurement: 0.0338
- molecule: "Cc1ccc(NC(=O)c2cccc(C(C)(C)C#N)c2)cc1Nc1ccc2ncn(C)c(=O)c2c1 [AZ628]"
  measurement-name: "apoptotic fraction of cells"
  observed-measurement: 0.028
- molecule: "CCCS(=O)(=O)Nc1ccc(F)c(C(=O)c2c[nH]c3ncc(-c4ccc(Cl)cc4)cc23)c1F [Vemurafenib]"
  measurement-name: "apoptotic fraction of cells"
  observed-measurement: 0.0398
- molecule: "CN(C)CCOc1ccc(-c2nc(-c3ccncc3)c(-c3ccc4c(c3)CC/C4=N\\O)[nH]2)cc1"
  measurement-name: "apoptotic fraction of cells"
  observed-measurement: 0.0332

---

tested on: COLO858; assay: relative viability (cell count relative to DMSO-treated control) (fraction of DMSO control); higher = more viable cells / less drug effect; details: 48 h; 0.00316 µM
measurement-name: relative viability

- compound: "CCCS(=O)(=O)Nc1ccc(F)c(C(=O)c2c[nH]c3ncc(Cl)cc23)c1F [PLX4720]"
  observed-measurement: 0.968
- compound: "Cn1cnc2c(F)c(Nc3ccc(Br)cc3Cl)c(C(=O)NOCCO)cc21 [Selumetinib]"
  observed-measurement: 0.983
- compound: "Cc1ccc(NC(=O)c2cccc(C(C)(C)C#N)c2)cc1Nc1ccc2ncn(C)c(=O)c2c1 [AZ628]"
  observed-measurement: 0.965
- compound: "CCCS(=O)(=O)Nc1ccc(F)c(C(=O)c2c[nH]c3ncc(-c4ccc(Cl)cc4)cc23)c1F [Vemurafenib]"
  observed-measurement: 0.926
- compound: "CN(C)CCOc1ccc(-c2nc(-c3ccncc3)c(-c3ccc4c(c3)CC/C4=N\\O)[nH]2)cc1"
  observed-measurement: 0.963

---

system: WM1552C; assay: apoptotic fraction of cells (caspase-3 NucView488 positive); higher = more apoptosis; conditions: 48 h; 3.16 µM
measurement-name: apoptotic fraction of cells

- compound: "CCCS(=O)(=O)Nc1ccc(F)c(C(=O)c2c[nH]c3ncc(-c4ccc(Cl)cc4)cc23)c1F [Vemurafenib]"
  assayed-system: "WM1552C"
  observed-measurement: 0.0951
- compound: "CN(C)CCOc1ccc(-c2nc(-c3ccncc3)c(-c3ccc4c(c3)CC/C4=N\\O)[nH]2)cc1"
  assayed-system: "WM1552C"
  observed-measurement: 0.0655
- compound: "Cn1cnc2c(F)c(Nc3ccc(Br)cc3Cl)c(C(=O)NOCCO)cc21 [Selumetinib]"
  assayed-system: "WM1552C"
  observed-measurement: 0.1
- compound: "CCCS(=O)(=O)Nc1ccc(F)c(C(=O)c2c[nH]c3ncc(Cl)cc23)c1F [PLX4720]"
  assayed-system: "WM1552C"
  observed-measurement: 0.0762
- compound: "Cc1ccc(NC(=O)c2cccc(C(C)(C)C#N)c2)cc1Nc1ccc2ncn(C)c(=O)c2c1 [AZ628]"
  assayed-system: "WM1552C"
  observed-measurement: 0.108

---

system: C32; assay: apoptotic fraction of cells (caspase-3 NucView488 positive); higher = more apoptosis; details: 72 h; 1 µM
The molecules listed here are annotated with their apoptotic fraction of cells.

- molecule: "CCCS(=O)(=O)Nc1ccc(F)c(C(=O)c2c[nH]c3ncc(Cl)cc23)c1F [PLX4720]"
  apoptotic fraction of cells: 0.619
- molecule: "Cn1cnc2c(F)c(Nc3ccc(Br)cc3Cl)c(C(=O)NOCCO)cc21 [Selumetinib]"
  apoptotic fraction of cells: 0.759
- molecule: "CN(C)CCOc1ccc(-c2nc(-c3ccncc3)c(-c3ccc4c(c3)CC/C4=N\\O)[nH]2)cc1"
  apoptotic fraction of cells: 0.474
- molecule: "Cc1ccc(NC(=O)c2cccc(C(C)(C)C#N)c2)cc1Nc1ccc2ncn(C)c(=O)c2c1 [AZ628]"
  apoptotic fraction of cells: 0.886
- molecule: "CCCS(=O)(=O)Nc1ccc(F)c(C(=O)c2c[nH]c3ncc(-c4ccc(Cl)cc4)cc23)c1F [Vemurafenib]"
  apoptotic fraction of cells: 0.658

---

relative viability values by entry
tested on: RVH421; experiment: relative viability (cell count relative to DMSO-treated control) (fraction of DMSO control); higher = more viable cells / less drug effect; details: 72 h; 1 µM
measurement-name: relative viability

- smiles-str: "Cn1cnc2c(F)c(Nc3ccc(Br)cc3Cl)c(C(=O)NOCCO)cc21"
  assayed-system: "RVH421"
  measurement-name: "relative viability"
  observed-measurement: 0.511
- smiles-str: "CN(C)CCOc1ccc(-c2nc(-c3ccncc3)c(-c3ccc4c(c3)CC/C4=N\\O)[nH]2)cc1"
  assayed-system: "RVH421"
  measurement-name: "relative viability"
  observed-measurement: 0.575
- smiles-str: "CCCS(=O)(=O)Nc1ccc(F)c(C(=O)c2c[nH]c3ncc(-c4ccc(Cl)cc4)cc23)c1F"
  assayed-system: "RVH421"
  measurement-name: "relative viability"
  observed-measurement: 0.539
- smiles-str: "Cc1ccc(NC(=O)c2cccc(C(C)(C)C#N)c2)cc1Nc1ccc2ncn(C)c(=O)c2c1"
  assayed-system: "RVH421"
  measurement-name: "relative viability"
  observed-measurement: 0.47
- smiles-str: "CCCS(=O)(=O)Nc1ccc(F)c(C(=O)c2c[nH]c3ncc(Cl)cc23)c1F"
  assayed-system: "RVH421"
  measurement-name: "relative viability"
  observed-measurement: 0.569

---

In this section we review reported relative viability values for a set of compounds.
system: WM1552C; assay: relative viability (cell count relative to DMSO-treated control) (fraction of DMSO control); higher = more viable cells / less drug effect; conditions: 72 h; 0.0316 µM

- compound: "Cn1cnc2c(F)c(Nc3ccc(Br)cc3Cl)c(C(=O)NOCCO)cc21 [Selumetinib]"
  relative viability: 0.806
- compound: "CCCS(=O)(=O)Nc1ccc(F)c(C(=O)c2c[nH]c3ncc(Cl)cc23)c1F [PLX4720]"
  relative viability: 1.13
- compound: "CN(C)CCOc1ccc(-c2nc(-c3ccncc3)c(-c3ccc4c(c3)CC/C4=N\\O)[nH]2)cc1"
  relative viability: 1.15
- compound: "Cc1ccc(NC(=O)c2cccc(C(C)(C)C#N)c2)cc1Nc1ccc2ncn(C)c(=O)c2c1 [AZ628]"
  relative viability: 0.948
- compound: "CCCS(=O)(=O)Nc1ccc(F)c(C(=O)c2c[nH]c3ncc(-c4ccc(Cl)cc4)cc23)c1F [Vemurafenib]"
  relative viability: 1.17

---

tested on: RVH421; assay: relative viability (cell count relative to DMSO-treated control) (fraction of DMSO control); higher = more viable cells / less drug effect; conditions: 24 h; 0.1 µM
measurement-name: relative viability

- smiles-str: "Cn1cnc2c(F)c(Nc3ccc(Br)cc3Cl)c(C(=O)NOCCO)cc21"
  assayed-system: "RVH421"
  measurement-name: "relative viability"
  observed-measurement: 1.03
- smiles-str: "CCCS(=O)(=O)Nc1ccc(F)c(C(=O)c2c[nH]c3ncc(-c4ccc(Cl)cc4)cc23)c1F"
  assayed-system: "RVH421"
  measurement-name: "relative viability"
  observed-measurement: 1
- smiles-str: "Cc1ccc(NC(=O)c2cccc(C(C)(C)C#N)c2)cc1Nc1ccc2ncn(C)c(=O)c2c1"
  assayed-system: "RVH421"
  measurement-name: "relative viability"
  observed-measurement: 1.06
- smiles-str: "CCCS(=O)(=O)Nc1ccc(F)c(C(=O)c2c[nH]c3ncc(Cl)cc23)c1F"
  assayed-system: "RVH421"
  measurement-name: "relative viability"
  observed-measurement: 1.05
- smiles-str: "CN(C)CCOc1ccc(-c2nc(-c3ccncc3)c(-c3ccc4c(c3)CC/C4=N\\O)[nH]2)cc1"
  assayed-system: "RVH421"
  measurement-name: "relative viability"
  observed-measurement: 1.03

---

test system: MMACSF; experiment: relative viability (cell count relative to DMSO-treated control) (fraction of DMSO control); higher = more viable cells / less drug effect; conditions: 72 h; 0.01 µM
Each entry below lists one item and its recorded relative viability value.
measurement-name: relative viability

- molecule: "CCCS(=O)(=O)Nc1ccc(F)c(C(=O)c2c[nH]c3ncc(-c4ccc(Cl)cc4)cc23)c1F [Vemurafenib]"
  observed-measurement: 0.941
- molecule: "Cc1ccc(NC(=O)c2cccc(C(C)(C)C#N)c2)cc1Nc1ccc2ncn(C)c(=O)c2c1 [AZ628]"
  observed-measurement: 0.833
- molecule: "Cn1cnc2c(F)c(Nc3ccc(Br)cc3Cl)c(C(=O)NOCCO)cc21 [Selumetinib]"
  observed-measurement: 0.759
- molecule: "CCCS(=O)(=O)Nc1ccc(F)c(C(=O)c2c[nH]c3ncc(Cl)cc23)c1F [PLX4720]"
  observed-measurement: 0.923
- molecule: "CN(C)CCOc1ccc(-c2nc(-c3ccncc3)c(-c3ccc4c(c3)CC/C4=N\\O)[nH]2)cc1"
  observed-measurement: 0.952
